biological target: human 4-1BB expressed on cells (human, UniProt Q07011 24-255); assay: cell-based or functional assay
Sequence (Q07011 24-255): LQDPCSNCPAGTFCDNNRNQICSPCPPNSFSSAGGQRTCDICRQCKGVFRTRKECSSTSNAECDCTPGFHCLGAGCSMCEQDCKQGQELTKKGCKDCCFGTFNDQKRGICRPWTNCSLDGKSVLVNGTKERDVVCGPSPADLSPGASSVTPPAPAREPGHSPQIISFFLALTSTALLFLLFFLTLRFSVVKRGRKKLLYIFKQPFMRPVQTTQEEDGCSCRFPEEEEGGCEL
Lab note: cut-off is 0.02 nM. Strictly less in EC50 (nM) in Jurkat-41BB NFκB reporter assay is rule met. Exactly 0.02 nM or more is rule not met.

As a guide, the following entries are already answered.
>  <BINDER>
VV02-1SP (1)-358 (Fc fusion, not shown: a dimerising Fc or GST; small tags and cut ends, Llama nanobody tested as fusion with human IgG1 Fc (N297A)) VHH: EVQLVESGGGLVQPGGSLMISCAASGFTFSSSAMSWARQVPGKGFEWVAYIYSDGSTYYADSVKGRFTISRDNAKDTVYLHMNSLKFEDMAVYYCATWRSQQVGRWDKYDYWGQGTQVTVSS

>  <LABEL>
rule met

$$$$
>  <BINDER>
VV02-1SP (1)-168 (Fc fusion, not shown: a dimerising Fc or GST; small tags and cut ends, Llama nanobody tested as fusion with human IgG1 Fc (N297A)) VHH: QVQLVESGGGLVQPGGSLRLSCAASGFTFSSYAMSWARQAPGKDFEWVSYIYSDGNTYYADSVKGRFTISRDNAKNTVYLQMNSLKPEDTAVYYCATWHTLRVGVWDEYDYWGQGTQVTVSS

>  <LABEL>
rule met

$$$$
>  <BINDER>
VV02-3LP-142 (Fc fusion, Llama nanobody tested as fusion with human IgG1 Fc (N297A); not shown: Human IgG1 Fc fragment with N297A, plus the hinge or linker joining it to the nanobody) VHH: AVQLVESGGGLVQRGGSLKLSCVGSGFDFSDHAMSWARQVPGKGFEWVAYIYSDGSTYYADSVKGRFTISRDNAKDTVYLHMNSLKFEDMAVYYCATWRSQQVGRWDEYDHWGQGTQVTVSS

>  <LABEL>
rule met

$$$$
>  <BINDER>
VV02-3LP-83 (Fc fusion, Llama nanobody tested as fusion with human IgG1 Fc (N297A); not shown: Human IgG1 Fc fragment with N297A, plus the hinge or linker joining it to the nanobody) VHH: EVDLVESGGGLVQPGGSLRLSCAASGFTFRSYAMSWARQVPGKGFEWVAYIYSDGSTYYADSVKGRFTISRDNAKDTVYLHMNSLKFEDMAVYYCATWRSQQVGRWDEYDHWGQGTQVTVSS

>  <LABEL>
rule met

$$$$
>  <BINDER>
VV02-1LP-417 (Fc fusion, Llama nanobody tested as fusion with human IgG1 Fc (N297A); not shown: Human IgG1 Fc fragment with N297A, plus the hinge or linker joining it to the nanobody) VHH: QLQLVESGGGLVQPGGSLRLSCAASGFALDYSAIGWFRQAPGKEREGVLCISSSGDVTIYADSVKGRFTISRDNAKNTVYLQMNSLKPEDTAVYYCVAPRICSTYSSDDYWGQGTQVTVSS

>  <LABEL>
rule not met

$$$$

Input VV02-2LP-13 (Fc fusion, Llama nanobody tested as fusion with human IgG1 Fc (N297A); not shown: Human IgG1 Fc fragment with N297A, plus the hinge or linker joining it to the nanobody) VHH: AVQLVESGGGLVQPGGSLRLSCAASGFTFSSYAMSWARQVPGKGFEWVAYIYSDGSTYYADSVKGRFTISRDNAKDTVYLHMNSLKFEDMAVYYCATWRSQQVGRWDEYDHWGQGTQVTVSS ; condition: EC50 (nM) in Jurkat-41BB NFκB reporter assay strictly below 0.02 nM. Does it hold? rule not met

Given VV02-1LP-422 (Fc fusion, not shown: a dimerising Fc or GST; small tags and cut ends, Llama nanobody tested as fusion with human IgG1 Fc (N297A)) VHH: QLQLVESGGGLVQPGGSLRLSCAASGFTLADYAIGWFRQAPGKEREGVLCISSSGDVTIYADSVKGRFTISRDNAKNTVYLQMNSLKPEDTAVYYCVAPRICSTYSSDDYWGQGTQVTVSS , is recorded EC50 (nM) in Jurkat-41BB NFκB reporter assay strictly lower than 0.02 nM? rule met

is_below(EC50 (nM) in Jurkat-41BB NFκB reporter assay, 0.02 nM) for VV02-1SP (1)-55 (Fc fusion, not shown: a dimerising Fc or GST; small tags and cut ends, Llama nanobody tested as fusion with human IgG1 Fc (N297A)) VHH: EVQLVESGGGLVQPGGSLRLSCAASGFTFSSSAMSWARQVPGKGFEWVAYIYSDGSTYYADSVKGRFTISRDNAKDTVYLHMNSLKFEDMAVYYCATWRSQQVGRWDEYDYWGQGIQVTVSS ? rule not met
